- assay_explanation: Cytotoxicity against human H460 cells after 48 hrs by MTT assay
- Type: functional, cell-based
- conditions_used: NCI-H460, 48 h
pIC50: −log10 of the molar value.

test_smiles: CC(C)=CCC/C(C)=C/CC/C(C)=C/CSc1ccccc1C(=O)N1CCN(C(=O)c2ccccc2SC/C=C(\C)CC/C=C(\C)CCC=C(C)C)CC1
censoring_qualifier: <
pIC50: 4.30
//
test_smiles: CC(C)=CCC/C(C)=C/CC/C(C)=C/CSc1ccccc1C(=O)NCCCCCN
censoring_qualifier: =
pIC50: 5.05
//
test_smiles: CC(C)=CCC/C(C)=C/CC/C(C)=C/CSc1ccccc1C(=O)O
censoring_qualifier: =
pIC50: 4.31
//
test_smiles: CC(C)=CCC/C(C)=C/CC/C(C)=C/CSc1ccccc1C(=O)NCCCCCCNC(=O)c1ccccc1SC/C=C(\C)CC/C=C(\C)CCC=C(C)C
censoring_qualifier: <
pIC50: 4.30
//
test_smiles: CC(C)=CCC/C(C)=C/CC/C(C)=C/CSc1ccccc1C(=O)NCCNC(=O)c1ccccc1SC/C=C(\C)CC/C=C(\C)CCC=C(C)C
censoring_qualifier: <
pIC50: 4.30
//
test_smiles: CC(C)=CCC/C(C)=C/CC/C(C)=C/CSc1ccccc1C(=O)NCCN
censoring_qualifier: =
pIC50: 4.44
//
test_smiles: CC(C)=CCC/C(C)=C/CC/C(C)=C/CSc1ccccc1C(=O)NCCCCNC(=O)c1ccccc1SC/C=C(\C)CC/C=C(\C)CCC=C(C)C
censoring_qualifier: <
pIC50: 4.30
//
test_smiles: CC(C)=CCC/C(C)=C/CC/C(C)=C/CSc1ccccc1C(=O)NCCCCCCN
censoring_qualifier: =
pIC50: 5.12
